Measured Target: T1, recombinant human CTGF protein (R&D Systems, SEQ ID NO: 79) (human, UniProt P29279 27-349)
T1 construct: Bought; also called human CTGF/CNN2; huCTGF
T1 sequence: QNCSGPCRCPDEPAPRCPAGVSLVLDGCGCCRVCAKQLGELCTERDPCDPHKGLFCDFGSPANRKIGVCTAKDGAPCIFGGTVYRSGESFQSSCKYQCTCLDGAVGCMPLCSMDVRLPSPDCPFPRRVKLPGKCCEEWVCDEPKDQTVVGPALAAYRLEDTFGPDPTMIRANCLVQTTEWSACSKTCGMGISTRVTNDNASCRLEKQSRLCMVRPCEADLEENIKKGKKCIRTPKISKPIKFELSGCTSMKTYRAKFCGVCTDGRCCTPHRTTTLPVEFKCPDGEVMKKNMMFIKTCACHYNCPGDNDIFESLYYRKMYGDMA
Experimental Protocol: HTRF, 1 nM biotinylated human CTGF
Method: Binding of some fusion proteins was tested by a Homogeneous Time Resolved Fluorescence (HTRF assay). […] After another 1 h of incubation, the fluorescence intensity of the donor and acceptor on the plate was read using a fluorescence microplate reader M1000 (Tecan) with the standard settings recommended by CisBio. The calculated ratio of signals was used for the curve fitting performed in GraphPad Prism 7 software.
pEC50: −log10 of the molar value.

Binder: fusion protein of SEQ ID NO: 62 (designed binder, not shown: C-terminal His-tag) QDSTSDLIPAPPLSKVPLQQNFQDNQFQGKWYVVGRAGNNQLREDKSPPKMWATIYELKEDKSYDVTHVHFSTKKCRYIIDTFVPGSQPGEFTAGAIKSGPGLTSPLVRVVSTNYNQHAMVFFKWVTQNREWFTITLYGRTKELTSELKENFIRFSKSLGLPENHIVFPVPIDQCIDGGGGGSGGGGSGGGGSQDSTSDLIPAPPLSKVPLQQNFQDNQFQGKWYVVGWAGNVKLREDKQPQKMSATIYELKEDKSYDVTEVVFEQKKCHYIIKTFVPGSQPGEFTAGDIKSPPGYTSSLVRVVSTNYNQHAMVFFKKVSQNREFFWITLYGRTKELTSELKENFIRFSKSLGLPENHIVFPVPIDQCIDG
pEC50: 9.20

From: patent US20240228562A1
